Answer each item with its documented binding signal.
target: OsWRKY34 (Oryza sativa, UniProt Q0JBA9 1-250); test: protein-binding microarray (RPBM); PBS, 2% BSA, 51.3 ng/ul salmon testes DNA, 50 uM zinc acetate, 200 nM TF, 25 C, 1 h; high values mean tight binding; conditions: protein: recombinant; tags: N-terminal polyhistidine and DsRed monomer fusion (pET32a); label: CyDye5-dUTP incorporated in the synthesized complementary strand; 3' TTTTT single-stranded linker to array surface; dsDNA, one strand shown
Sequence (Q0JBA9 entry or part of it): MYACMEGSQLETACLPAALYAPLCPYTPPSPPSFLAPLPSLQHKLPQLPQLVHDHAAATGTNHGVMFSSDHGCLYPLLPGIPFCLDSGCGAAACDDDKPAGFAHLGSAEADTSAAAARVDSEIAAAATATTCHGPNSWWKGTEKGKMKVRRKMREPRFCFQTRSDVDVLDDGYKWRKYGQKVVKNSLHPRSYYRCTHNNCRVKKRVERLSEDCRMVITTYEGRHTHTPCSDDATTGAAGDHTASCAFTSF
Whole data set: some 68,000 sequences, median “fluorescence intensity (a.u.)” near 9,100, cut for the highest 2% near 16,000. This is one part of a sample in which the highest values are shown more often than they occur.

Task: Bench note: what binding signal did GATTCTAAACATCCACTCACACCTCATTTTTTTCATTAGCCGGAGTCACCTAGTGCAG show?
Result: 9350 fluorescence intensity (a.u.)

Task: binding signal for GTATGCATTATTATGCTGATTAATTTGGCCTGGTTATTTGCGGAGTCACCTAGTGCAG ?
Result: 8160 fluorescence intensity (a.u.)

Task: Field request: binding signal | item: AGTAGCAGCAGCAGCAGCAGGCAGGAGGGAGTGGGTTTGTCGGAGTCACCTAGTGCAG
Result: 9600 fluorescence intensity (a.u.)

Task: Could you tell me which binding signal is on file for TGACACCGTTGACTTTTCGACCAATGTTTGACCATTCGTTCGGAGTCACCTAGTGCAG ?
Result: 24400 fluorescence intensity (a.u.)

Task: Report binding signal for TCTCTCTCACTCTTCCGGTCTTCCCTGGGCAGGCTAGCCGCGGAGTCACCTAGTGCAG please.
Result: 8840 fluorescence intensity (a.u.)

Task: # lookup: binding signal of ACACCGTTGACTTTTCGACTAACGTTTGACCATTTGTTTTCGGAGTCACCTAGTGCAG
Result: 49300 fluorescence intensity (a.u.)

Task: What measured binding signal goes with AAATCTGTAGCCCGCTGCTTTTCTCTCTCCTTATTTATCTCGGAGTCACCTAGTGCAG ?
Result: 11200 fluorescence intensity (a.u.)

Task: Give the measured binding signal of TTTCGACTAACGTTTGACCATTCGTTTTATTCAAAATTTTCGGAGTCACCTAGTGCAG .
Result: 8880 fluorescence intensity (a.u.)

Task: Fill blank: measured binding signal of the sequence CACTCTGCCTCACCTCACCTCACCTCACGTCCTCACCTCCCGGAGTCACCTAGTGCAG is ____.
Result: 10300 fluorescence intensity (a.u.)

Task: Request the reported binding signal associated with GTCACCAGTGTCCGCCAATAATTTGCACATCTTCTCATATCGGAGTCACCTAGTGCAG
Result: 10300 fluorescence intensity (a.u.)

Task: Find the recorded binding signal belonging to GAATTCTTGTGTTCCAAGCATTTCGATTTGCTCCTCTCTTCGGAGTCACCTAGTGCAG and report it.
Result: 9020 fluorescence intensity (a.u.)

Task: # lookup: binding signal of TCACTTTTCATGTACAAAACATGTTGATATTGTGGTTGGTCGGAGTCACCTAGTGCAG
Result: 8200 fluorescence intensity (a.u.)

Task: What does the data say about its binding signal? Entry: TGGATTTATTTATTCTTGTTCTTTTTCTCGAAAATTTCCACGGAGTCACCTAGTGCAG
Result: 8640 fluorescence intensity (a.u.)

Task: Fill in the blank: the reported binding signal of TTTGGTGGTGTGCAAGTGGAGTGGTTTATAAAATTATGTCCGGAGTCACCTAGTGCAG is ____.
Result: 8980 fluorescence intensity (a.u.)

Task: Form field: reported binding signal of CCTTTTCAAGTATTATTGCTGTTTGATTCATCTCTCTTTGCGGAGTCACCTAGTGCAG
Result: 9510 fluorescence intensity (a.u.)

Task: // lookup binding signal for CATCTGCACGCATATATATCTGTAAACTCAGCGCGTTTTTCGGAGTCACCTAGTGCAG
Result: 8100 fluorescence intensity (a.u.)

Task: Param item = CTGTTTAGATCTCCTAGCAACATTTTACACTCTCTTGCATCGGAGTCACCTAGTGCAG ; retrieve measured binding signal.
Result: 8740 fluorescence intensity (a.u.)

Task: Fill in the blank: the reported binding signal of CTTGATTACCCCGTAGTCAGGTTTGTATGACTAAGCAACCCGGAGTCACCTAGTGCAG is ____.
Result: 8980 fluorescence intensity (a.u.)

Task: Which value of binding signal has been reported for AAACTGGGCCATATCGGTTGGTTTTTGCTCTCTACGTCTCCGGAGTCACCTAGTGCAG in the records?
Result: 9280 fluorescence intensity (a.u.)
